Molecular target: human Grb2 SH2 domain (Homo sapiens)
Sequence (P62993 58-159): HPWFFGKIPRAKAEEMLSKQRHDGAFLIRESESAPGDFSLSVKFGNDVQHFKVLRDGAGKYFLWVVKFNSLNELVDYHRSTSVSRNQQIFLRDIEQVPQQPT
pKi: −log10 of the molar value.
quantity name: pKi

Fill in: pKi of CCCCCCNC(=O)[C@H]1CC[C@H](CNC(=O)c2ccc(C(=O)c3ccc(C(=O)O)cc3)cc2)CC1 [Compound 6] is ___
< 3.00

----------
Target: human p85 SH2 domain (Homo sapiens)
Sequence (P27986 321-440): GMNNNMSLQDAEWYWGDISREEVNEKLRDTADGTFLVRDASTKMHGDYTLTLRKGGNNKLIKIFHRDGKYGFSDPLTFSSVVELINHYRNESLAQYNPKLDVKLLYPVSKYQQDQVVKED
Assay: ELISA-based SH2 domain / pY peptide binding assay, p85 SH2 domain
Settings: inhibition of binding of 0.1 uM biotinylated pY peptide to SH2 domain fusion protein
quantity name: IC50

Fill in: IC50 of CCCCCCNC(=O)[C@H]1CC[C@H](CNC(=O)c2ccc(C(=O)c3ccc(C(=O)O)cc3)cc2)CC1 [Compound 6] is ___
> 300 µM

Attribution: patent EP0728482A2
